Entry source: ChEMBL document CHEMBL5543116

test: Half life in dog at 0.5 mg/kg, iv; type: ADME, organism-based, Canis lupus familiaris; details: in vivo
Readout Kind: half-life

INPUT: Please list half-life recorded for the compound O=C(COc1ccc(Cl)cc1)NC12CC(c3nnc([C@H]4C[C@@H](OC(F)(F)F)C4)o3)(C1)C2
OUTPUT: 7.4 h

* * *

assay: Volume of distribution at steady state in cynomolgus monkey at 0.5 mg/kg, iv; assay type: ADME, organism-based, Macaca fascicularis; details: in vivo, read-out: Vdss
Readout Kind: Vd
Entry format: amount then unit.

INPUT: Identify the reported Vd for the following entry. O=C(COc1ccc(Cl)cc1)NC12CC(c3nnc([C@H]4C[C@@H](OC(F)(F)F)C4)o3)(C1)C2
OUTPUT: 1.9 L/kg

* * *

experiment: Oral bioavailability in rat at 3 mg/kg by LC-MS/MS analysis; format: ADME, organism-based; conditions: in vivo
Readout Kind: bioavailability
Remember to quote the unit after the number.

INPUT: Specify measured bioavailability for O=C(COc1ccc(C(F)(F)F)cc1)NC12CC(c3nnc([C@H]4C[C@@H](OC(F)(F)F)C4)o3)(C1)C2 .
OUTPUT: 39%

Query compound follows.
INPUT: Read the entry O=C(COc1ccc(Cl)cc1)NC12CC(c3nnc([C@H]4C[C@@H](OC(F)(F)F)C4)o3)(C1)C2 and write its reported bioavailability.
OUTPUT: 65%

* * *

Please go through the items and note down their CLhep predicted.
assay: Metabolic stability in rat liver microsome assessed as hepatic clearance; assay type: ADME; conditions: liver microsomes

INPUT: Give the value of CLhep predicted reported for the following: O=C(COc1ccc(C(F)(F)F)cc1)NC12CC(c3nnc([C@H]4C[C@@H](OC(F)(F)F)C4)o3)(C1)C2
OUTPUT: < 17 mL/min/kg

New cases:
INPUT: Give reported CLhep predicted value for O=C(COc1ccc(Cl)cc1)NC12CC(c3nnc([C@H]4C[C@@H](OC(F)(F)F)C4)o3)(C1)C2
OUTPUT: < 17 mL/min/kg

* * *

experiment: Oral bioavailability in dog at 1 mg/kg; type: ADME, organism-based, Canis lupus familiaris; conditions: in vivo
Readout Kind: bioavailability

INPUT: Look up and report measured bioavailability for this entry: O=C(COc1ccc(Cl)cc1)NC12CC(c3nnc([C@H]4C[C@@H](OC(F)(F)F)C4)o3)(C1)C2 [EVETIFATOR]
OUTPUT: > 99%

* * *

target: Voltage-gated inwardly rectifying potassium channel KCNH2 (Homo sapiens); experiment: Inhibition of hERG manual patch clamp assay
Sequence (Q12809 whole entry): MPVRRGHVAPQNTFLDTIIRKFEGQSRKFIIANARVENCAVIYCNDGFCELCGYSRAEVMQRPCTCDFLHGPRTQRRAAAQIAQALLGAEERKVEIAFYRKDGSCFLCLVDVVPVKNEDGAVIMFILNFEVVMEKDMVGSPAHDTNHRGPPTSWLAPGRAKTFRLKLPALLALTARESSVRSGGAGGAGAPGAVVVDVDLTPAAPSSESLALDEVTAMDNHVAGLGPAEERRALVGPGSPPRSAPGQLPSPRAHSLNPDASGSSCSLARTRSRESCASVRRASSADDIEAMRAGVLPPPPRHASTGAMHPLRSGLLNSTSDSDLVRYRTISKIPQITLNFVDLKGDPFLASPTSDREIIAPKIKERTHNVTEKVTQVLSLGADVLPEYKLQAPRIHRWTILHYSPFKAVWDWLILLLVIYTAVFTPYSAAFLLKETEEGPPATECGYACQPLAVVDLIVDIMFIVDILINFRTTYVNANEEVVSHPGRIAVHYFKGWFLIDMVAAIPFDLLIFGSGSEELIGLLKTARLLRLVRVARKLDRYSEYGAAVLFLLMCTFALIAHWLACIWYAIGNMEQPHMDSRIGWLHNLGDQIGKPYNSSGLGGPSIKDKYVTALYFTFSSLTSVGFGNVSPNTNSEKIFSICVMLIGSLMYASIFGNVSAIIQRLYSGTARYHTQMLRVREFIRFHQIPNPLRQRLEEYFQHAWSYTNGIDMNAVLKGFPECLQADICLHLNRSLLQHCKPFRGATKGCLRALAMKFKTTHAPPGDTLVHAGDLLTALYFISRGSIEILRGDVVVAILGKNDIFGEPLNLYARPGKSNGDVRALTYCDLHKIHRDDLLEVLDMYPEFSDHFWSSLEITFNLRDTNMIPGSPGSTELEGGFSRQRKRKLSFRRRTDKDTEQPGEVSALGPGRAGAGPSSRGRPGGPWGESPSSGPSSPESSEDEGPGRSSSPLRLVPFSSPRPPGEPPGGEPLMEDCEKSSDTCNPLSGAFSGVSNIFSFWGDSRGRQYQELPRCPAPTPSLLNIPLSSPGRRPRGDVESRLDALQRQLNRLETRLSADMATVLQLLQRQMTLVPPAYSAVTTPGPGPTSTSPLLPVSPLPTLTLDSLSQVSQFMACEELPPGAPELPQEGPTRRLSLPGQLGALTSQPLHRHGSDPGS
Readout Kind: IC50 (µM)
Give bare numbers, in µM.

INPUT: Read off the recorded IC50 for O=C(COc1ccc(Cl)cc1)NC12CC(c3nnc([C@H]4C[C@@H](OC(F)(F)F)C4)o3)(C1)C2
OUTPUT: 3

* * *

test: Half life in rat at 1 mg/kg, iv by LC-MS/MS analysis; format: ADME, organism-based; settings: in vivo
I'd appreciate it if you could supply half-life values for the items below.
Answers are plain numbers, in min.

INPUT: Tell us which half-life value is on record for O=C(COc1ccc(C(F)(F)F)cc1)NC12CC(c3nnc([C@H]4C[C@@H](OC(F)(F)F)C4)o3)(C1)C2
OUTPUT: 1370

Now look at this entry.
INPUT: Answer with the recorded half-life of O=C(COc1ccc(Cl)cc1)NC12CC(c3nnc([C@H]4C[C@@H](OC(F)(F)F)C4)o3)(C1)C2 only.
OUTPUT: 750
